- Tested on: THP-1
- experimental-details: cell viability (% survival relative to DMSO control, bortezomib = 0%); higher = less cytotoxic
- applied-conditions: 100 nM; 72 h
endpoint: cell viability (%)
Answers are plain numbers, in %.

Reference set, count: 5
| compound | readout-unit | cell viability |
| --- | --- | --- |
| CC(C)c1onc(-c2c(Cl)cccc2Cl)c1COc1ccc(/C=C/c2cccc(C(=O)O)c2)c(Cl)c1 | % | 91.5 |
| O=C1O[C@H]([C@@H](O)CO)C(O)=C1O [Vitamin C (ascorbate)] | % | 103 |
| N#Cc1ccnc(N2C(=O)CC[C@H]2C(=O)N(c2cncc(F)c2)C(C(=O)NC2CC(F)(F)C2)c2ccccc2Cl)c1 (stereo partly drawn) | % | 107 |
| NCCCC(N)(C(=O)O)C(F)F (stereo not drawn) | % | 98.9 |
| O=C(O)c1cc(N=Nc2ccc(S(=O)(=O)Nc3ccccn3)cc2)ccc1O | % | 106 |

Your task in this section: give cell viability for each listed record.
1. CC[C@@]1(O)C(=O)OCc2c1cc1n(c2=O)Cc2cc3c(CN(C)C)c(O)ccc3nc2-1
2. C[C@](N)(Cc1ccc(O)cc1)C(=O)O
3. CCOC(=O)c1ccc(-c2ccc(OC(=O)N(C)Cc3cccc(-c4ccncc4)c3)cc2)cc1

78.5
105
95.2

---

Record form. Attribute: cell viability. Fill in for each entry.
- Test system: SHI-1
- experimental-details: cell viability (% survival relative to DMSO control, bortezomib = 0%); higher = less cytotoxic
- applied-conditions: 10 nM; 72 h
Answers are plain numbers, in %.

Reference set, count: 5
| compound | assayed-system | observed-value |
| --- | --- | --- |
| O=C(O)CCCCC(CCSCc1ccccc1)SCc1ccccc1 (stereo unspecified) | SHI-1 | 110 |
| Cc1coc2c1C(=O)C(=O)c1c-2ccc2c1CCCC2(C)C | SHI-1 | 98.5 |
| CC(C)c1cc2c(c(O)c1O)[C@@]1(C(=O)O)CCCC(C)(C)[C@@H]1CC2 | SHI-1 | 112 |
| CCCCCCCCCCCC(=O)c1c(O)c(C(=O)CCCCCCCCCCC)c(O)c(C2CC(c3ccc(O)cc3)Oc3cc(O)ccc32)c1O (stereo unspecified) | SHI-1 | 111 |
| O=C1O/C(=C/Br)CCC1c1cccc2ccccc12 (stereo unspecified) | SHI-1 | 92.9 |

Now turn to the next compound.
SHI-1 cell viability of `COc1ccc(C(=O)Nc2c(Cl)cncc2Cl)cc1OC1CCCC1` is 105

---

- Test system: myeloid leukemia patient primary cells Pat.9
- experimental-details: area under dose-response curve (viability, 1 nM-10 uM) (fraction (0-1)); higher = more sensitive
- applied-conditions: 72 h
Record form. Attribute: area under dose-response curve. Fill in for each entry.
Numbers only.

Reference set, count: 4
| compound | area under dose-response curve |
| --- | --- |
| CN(C)C(=O)n1nnnc1Cc1ccc(-c2ccccc2)cc1 | 0.766 |
| N#CC(C#N)=NNc1ccc(OC(F)(F)F)cc1 | 0.361 |
| O=C1O/C(=C/Br)CCC1c1cccc2ccccc12 (stereo not given) | 0.651 |
| CCC(=O)N1CCN(c2ccc(-n3c(=O)ccc4cnc5ccc(-c6cnc7ccccc7c6)cc5c43)cc2C(F)(F)F)CC1 | 0.36 |

Now turn to the next compound.
Input `Nc1nc(Cl)nc2c1ncn2[C@H]1C[C@H](O)[C@@H](CO)O1` . Output area under dose-response curve: 0.762
